# median enrichment values compiled below
# System: HEK293T
# Procedure Details: median enrichment of reporter reads in eGFP-reduced (low/intermediate) vs eGFP-high sorted cells (eGFP-extension fusion abundance) (ratio); higher = stronger loss of eGFP-fusion protein abundance (more destabilising extension)
# print the numeric value only

Use the examples below as a reference point.
Substance: LRPHKHYGRSVGPQHGLPSGRPVLPEEGPACWPGACRHC [ZGPAT]
Measurement: 6.53

Substance: YDVMLAGSPPLDPDSYG [SH3GL2]
Measurement: 0.593

Summary for this substance, YRTDVE [HEY1] : median enrichment is 0.613

Entry EEESLPPPKYWAALSLPRDHPSLPAMCTIMTNLFGYAVVLPFWGLGSTRRLCLQCRNLFSLCVAGARAQGPCLCIFNKYSFSK [GPR108] ; median enrichment = 0.994

What the record says about YFVLRTDFLPIPFLNIQRLYWPVSFYFFPPDKYFRS [STMN1] : median enrichment is 15.2

In plain terms, QIQGHK [RILPL2] has a documented median enrichment of 0.367

# substance LVRIFNIFQKCIYIVLLCFFHCTL [SLC39A12] ; its median enrichment = 9.98

Value of median enrichment reported for the substance QTLCALCVRPVPAS [USP10] is 7.74

# median enrichment of CEQQMELWERGEQWGYRESSSALPLGQPHLPAVSPGHFSTSQVEVLQGPAATCIRRTSFSA [SPATA19] = 2.8

Form: substance = SRKFLRCCHLLEMRFVLCLNGLFFKKTKNQMKEHSWGFLFVCVCMCKLMSNCICRSVIVLYCVNYFHCGYFSR [U2SURP] ; median enrichment = 5.89

The recorded median enrichment for entry KTCIHFLQTI [BACH1] equals 2.97

Lookup result for CPSGPPLPLGQGNQLLRDFSCLEGAVIAPPHCPTVLLGL [FBXW4] ; measured median enrichment: 12.6

Entry WRATGPQQCEGSLAAHPAAGAQPLPGMRLSADGETATQSFGLCVCVCVCVCVCAHPRVPVCVRILPPGAEVPWVSPLLCNGLL [FGFR3] , median enrichment reported as 3.69

So, CPCSRVSQGHFAATAAFPEIKQPGAVASELRGAGGRARTLGLGHGALSLKATFLTYSLYITQRP [CTNS] ? Its median enrichment was 3.76

Short answer for SAPCSTPSPPHPPWAGS [MOSPD3] : median enrichment was 4.09

* * *

In this section, each of the substances is paired with its reported median enrichment.
# Tested on: HEK293T;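 also: lentiviral eGFP-IRES-mCherry reporter pool sorted by FACS 96 h post-transduction, gated on mCherry-high cells, Illumina read counts normalized per million, median across four biological replicates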
# Procedure Details: median enrichment of reporter reads in eGFP-reduced (low/intermediate) vs eGFP-high sorted cells (eGFP-extension fusion abundance) (ratio); higher = stronger loss of eGFP-fusion protein abundance (more destabilising extension)
Write the value as a bare number.

For orientation, consider the following solved cases.
Substance: KELFQFIE [FOXJ3]
Measured On: HEK293T
median enrichment: 0.495
//
Substance: WVKEEKPSTP [TAS2R19]
Measured On: HEK293T
median enrichment: 0.336
//
Substance: WGEPQTLRES [C7orf61]
Measured On: HEK293T
median enrichment: 0.458
//
Substance: YPPQGPAPPRPGE [WFIKKN1]
Measured On: HEK293T
median enrichment: 0.52

Per the record, CNHLTRTIGAPVASAHCLSLEKWRNKCYIYLCV [FAM149A] has median enrichment of 6.79

median enrichment for GHSPLLVPH [TP53] is 0.449

median enrichment reported for this substance YEPEYSR [GBP4] : 0.833

// field: median enrichment; key: STSAHILESYYS [ACADL] ; value = 0.545

The substance listed as RAETSALLTLRDTTRLHGEV [CORO2A] has a reported median enrichment of 6.49
